Assay: AUC in human MIA PaCa-2 cells xenografted mouse at 30 mg/kg, po
Type: ADME, organism-based
Design: dose 30 mg/kg, route po
Conditions: in vivo
value-type: AUC (µM·h)

> print(dat)
                                  structure  display.unit  meas.value
1  C=CC(=O)N1CC2(CC(n3nc(-c4ccc5c(cnn5CCOC)c4)c(-c4c(Cl)c(C)cc5[nH]ncc45)c3C)C2)C1          µM·h         1.5
2  C=CC(=O)N1CC2(CC(n3nc(-c4ccc5c(cnn5C)c4)c(-c4c(Cl)c(C)cc5[nH]ncc45)c3C)C2)C1          µM·h         8.9
3  C=CC(=O)N1CC2(CC(n3nc(-c4ccc5c(cnn5CCN(C)C)c4)c(-c4c(Cl)c(C)cc5[nH]ncc45)c3C)C2)C1          µM·h         0.5
4  C=CC(=O)N1CC2(CC(n3nc(-c4ccc5nn(CCOC)cc5c4)c(-c4c(Cl)c(C)cc5[nH]ncc45)c3C)C2)C1          µM·h         7.3
